These measurements were taken from patent US5760022A.

Test: bioavailability of IP3 in pigs: concentration of IP3 in blood samples and AUC after intravenous injection, intraduodenal/oral formulation and oral sodium salt
Conditions: pig, in vivo, iv
Where a name gives a salt, the structure may show the parent alone.
recorded-endpoint: concentration at 8 h
Reply with the number and its unit after it.

(Q) Return reported concentration at 8 h; argument: O=P(O)(O)O[C@@H]1[C@H](OP(=O)(O)O)[C@H](O)[C@@H](O)[C@H](O)[C@H]1OP(=O)(O)O [sodium salt of IP3, D-myo-inositol-1,2,6-trisphosphate]
(A) 600 nM

---

Experiment: bioavailability of IP3 in pigs: concentration of IP3 in blood samples and AUC after intravenous injection, intraduodenal/oral formulation and oral sodium salt
Details: pig, in vivo, iv
Structures can show the parent of a compound that is named as a salt.
recorded-endpoint: concentration at 0.25 h (µM)
Could you give me the number in µM? Just the number is fine.

(Q) Return reported concentration at 0.25 h; argument: O=P(O)(O)O[C@@H]1[C@H](OP(=O)(O)O)[C@H](O)[C@@H](O)[C@H](O)[C@H]1OP(=O)(O)O [sodium salt of IP3, D-myo-inositol-1,2,6-trisphosphate]
(A) 53.7

---

Assay: bioavailability of IP3 in pigs: concentration of IP3 in blood samples and AUC after intravenous injection, intraduodenal/oral formulation and oral sodium salt
Conditions: pig, in vivo, po
Protocol: The blood samples were assayed for the content of IP3 and these measurements were used for the calculation of the reference data as 100% of the substance is introduced into the blood stream after an intravenous injection. […] Blood samples were collected at the time intervals mentioned above and the concentration of IP3 was determined in each sample. […] Blood samples were collected at the same time intervals as above and the concentration of IP3 was determined. […]
Where a name gives a salt, the structure may show the parent alone.
recorded-endpoint: concentration at 0.5 h
Reply with the number and its unit after it.

(Q) Return reported concentration at 0.5 h; argument: O=P(O)(O)O[C@@H]1[C@H](OP(=O)(O)O)[C@H](O)[C@@H](O)[C@H](O)[C@H]1OP(=O)(O)O [sodium salt of IP3, D-myo-inositol-1,2,6-trisphosphate]
(A) 600 nM

---

Experiment: bioavailability of IP3 in pigs: concentration of IP3 in blood samples and AUC after intravenous injection, intraduodenal/oral formulation and oral sodium salt
Settings: pig, in vivo, iv
Structures can show the parent of a compound that is named as a salt.
recorded-endpoint: concentration at 4 h (µM)
Could you give me the number in µM? Just the number is fine.

(Q) Return reported concentration at 4 h; argument: O=P(O)(O)O[C@@H]1[C@H](OP(=O)(O)O)[C@H](O)[C@@H](O)[C@H](O)[C@H]1OP(=O)(O)O [sodium salt of IP3, D-myo-inositol-1,2,6-trisphosphate]
(A) 2.6

---

Experiment: bioavailability of IP3 in pigs: concentration of IP3 in blood samples and AUC after intravenous injection, intraduodenal/oral formulation and oral sodium salt
Settings: pig, in vivo, iv
Counter-ions that a name gives are not always drawn.
recorded-endpoint: concentration at 1.5 h
Reply with the number and its unit after it.

(Q) Return reported concentration at 1.5 h; argument: O=P(O)(O)O[C@@H]1[C@H](OP(=O)(O)O)[C@H](O)[C@@H](O)[C@H](O)[C@H]1OP(=O)(O)O [sodium salt of IP3, D-myo-inositol-1,2,6-trisphosphate]
(A) 12.1 µM

---

Test: bioavailability of IP3 in pigs: concentration of IP3 in blood samples and AUC after intravenous injection, intraduodenal/oral formulation and oral sodium salt
Conditions: pig, in vivo, iv
Structures can show the parent of a compound that is named as a salt.
recorded-endpoint: concentration at 1 h (µM)
Could you give me the number in µM? Just the number is fine.

(Q) Return reported concentration at 1 h; argument: O=P(O)(O)O[C@@H]1[C@H](OP(=O)(O)O)[C@H](O)[C@@H](O)[C@H](O)[C@H]1OP(=O)(O)O [sodium salt of IP3, D-myo-inositol-1,2,6-trisphosphate]
(A) 21.6
